Cited source: patent US8193189B2

// each record: one item and its pIC50 for GST-JAK1(866-1154) (Homo sapiens)
The meaning of pIC50 here: minus log10 of the concentration in molar units.

Answered examples (8):
1. O=S1(=O)CCN(Cc2ccc(-c3cccc4ncc(-c5cnn(C6CCNCC6)c5)nc34)cc2)CC1
7.14
2. Cc1cc(-c2cnc3cccc(-c4cc(F)c(CN5CCS(=O)(=O)CC5)c(F)c4)c3n2)ccc1C(=O)N1CCC(N(C)C)CC1
5.92
3. Cc1cc(-c2cnc3cccc(-c4ccc(CC(=O)N5CCOCC5)c(F)c4)c3n2)ccc1OCCCN1CCOCC1
6.16
4. Cc1cc(-c2cnc3cccc(-c4ccc(CN5CCOCC5)c(C(F)(F)F)c4)c3n2)ccc1C(=O)N(C)C
5.77
5. Cc1cc(-c2cnc3cccc(-c4cc(F)c(CN5CCOCC5)c(F)c4)c3n2)ccc1C(=O)N1CCCC1
6.85
6. COc1cc(-c2cnc3cccc(-c4ccc(NS(C)(=O)=O)cc4)c3n2)cc(OC)c1OC
6.74
7. Cc1cc(-c2cnc3cccc(-c4cc(F)c(CN5CCOCC5)c(F)c4)c3n2)ccc1C(=O)NCCO
6.89
8. Cc1cc(CN2CCOCC2)ccc1-c1cccc2ncc(-c3cnn(C4CCNCC4)c3)nc12
5.82

What does the data say about its pIC50? Entry: "COCCOc1ccc(-c2cnc3cccc(-c4cc(F)c(CN5CCOCC5)c(F)c4)c3n2)cc1OC" 7.42

// query: "COc1cc(-c2cnc3cccc(-c4ccc(C(=O)N5CCOCC5)c(Cl)c4)c3n2)cc(OC)c1OC" 6.64

Okay, and "COCCOc1ccc(-c2cnc3cccc(-c4ccc(CN5CCS(=O)(=O)CC5)c(F)c4)c3n2)cc1OC" ? 8.00

Next compound up: "CN1CCN(C(=O)c2cc(-c3cnc4cccc(-c5cc(F)c(CN6CCS(=O)(=O)CC6)c(F)c5)c4n3)cn2C)CC1" 7.80

Also, "Cc1c(-c2cnc3cccc(-c4cc(F)c(CN5CCOCC5)c(F)c4)c3n2)cnn1C1CCNCC1" please. 6.51

Could you do the same for "Cc1cc(-c2cnc3cccc(-c4ccc(CC(=O)N5CCS(=O)(=O)CC5)c(F)c4)c3n2)ccc1Cn1ccnc1" , please? 6.96

// repeat for "COc1cc(-c2cnc3cccc(-c4ccc(CN5CCOCC5)c(C)c4)c3n2)cc(OC)c1OC" and report 5.74

* * *

Reported pIC50 is given for each of the following compounds.
Target: GST-JAK3(811-1124) (Homo sapiens)
Sequence (P52333 811-1124): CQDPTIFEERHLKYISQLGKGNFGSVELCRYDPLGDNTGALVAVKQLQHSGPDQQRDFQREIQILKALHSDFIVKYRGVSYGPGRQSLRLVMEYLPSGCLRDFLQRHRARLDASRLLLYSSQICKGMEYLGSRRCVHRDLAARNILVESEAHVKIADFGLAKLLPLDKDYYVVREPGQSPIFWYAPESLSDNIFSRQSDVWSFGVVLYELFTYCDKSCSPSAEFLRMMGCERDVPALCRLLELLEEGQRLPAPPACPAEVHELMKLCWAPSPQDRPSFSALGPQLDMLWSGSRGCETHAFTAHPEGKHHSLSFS
Friendly reminder that pIC50 comes from taking -log10 of the concentration in mol/L.

As a guide, the following entries are already answered.
1) Cc1cc(-c2cnc3cccc(-c4ccc(CN5CCS(=O)(=O)CC5)c(Cl)c4)c3n2)ccc1C(=O)N1CCCC1
6.39
2) CCN1CCN(Cc2ccc(-c3cnc4cccc(-c5ccc(CN6CCOCC6)c(F)c5)c4n3)cc2C)CC1
5.90

Query compound follows.
// lookup pIC50 | system=GST-JAK3(811-1124) (Homo sapiens) | key= "COCCOC(=O)N1CCC(n2cc(-c3cnc4cccc(-c5cc(F)c(CN6CCOCC6)c(F)c5)c4n3)cn2)CC1" 5.49

* * *

Reported values of pIC50 for individual entries
Target: GST-JAK1(866-1154) (Homo sapiens, UniProt P23458)
Sequence (P23458 866-1154): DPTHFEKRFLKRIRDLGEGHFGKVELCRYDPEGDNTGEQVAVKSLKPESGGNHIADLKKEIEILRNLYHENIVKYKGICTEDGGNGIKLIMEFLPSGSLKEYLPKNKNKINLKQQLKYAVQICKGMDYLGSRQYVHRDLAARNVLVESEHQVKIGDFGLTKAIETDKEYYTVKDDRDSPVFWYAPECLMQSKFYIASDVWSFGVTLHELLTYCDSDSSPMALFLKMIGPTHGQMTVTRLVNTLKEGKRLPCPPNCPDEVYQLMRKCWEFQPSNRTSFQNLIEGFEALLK
To interpret pIC50, take it as minus log10 of a concentration measured in moles per litre.

1. CN1CCN(c2ccc(-c3cnc4cccc(-c5cc(F)c(CN6CCOCC6)c(F)c5)c4n3)cc2)CC1 [Example 87]
6.65
2. Cc1cc(-c2cnc3cccc(-c4ccc(CN5CCS(=O)(=O)CC5)c(F)c4)c3n2)ccc1C(=O)N1CCOCC1 [Example 62]
7.35

Would you mind telling me what pIC50 value was observed for Cc1cc(-c2cnc3cccc(-c4ccc(CN5CCS(=O)(=O)CC5)cc4)c3n2)ccc1C(=O)N1CCN(C)CC1 [Example 40] ? 7.11

Then Cc1cc(-c2cnc3cccc(-c4ccc(CN5CCS(=O)(=O)CC5)c(F)c4)c3n2)ccc1C(=O)N(C)C [Example 54] ? 7.77

Now the compound CN(C)CCN(C)C(=O)c1ccc(-c2cnc3cccc(-c4cc(F)c(CN5CCS(=O)(=O)CC5)c(F)c4)c3n2)cn1 [Example 111] 6.04

Same for Cc1cc(-c2cccc3ncc(-c4ccc(C(=O)N5CCOCC5)c(C)c4)nc23)ccc1CN1CCS(=O)(=O)CC1 [Example 57] 7.10

Same for Fc1cc(-c2cccc3ncc(-c4cnn(CC5CCNCC5)c4)nc23)cc(F)c1CN1CCOCC1 [Example 133] 6.26
